B1: POU domain, class 3, transcription factor 2, residues 262 to 338; numbered along this chain, P20265 (parent)
chain: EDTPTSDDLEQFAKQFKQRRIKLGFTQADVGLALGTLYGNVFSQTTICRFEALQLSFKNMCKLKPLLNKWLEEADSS

- Variants of: B1
- experiment-notes: abundance fitness (aPCA) (normalised: wild type 0, dead -1); higher = more abundant; growth selection in yeast, the domain comes from the species named
- run-parameters: Homo sapiens
Categories are defined by ranges of abundance fitness, namely bucket 1 = under -0.5, bucket 2 = from -0.5 up to -0.1, bucket 3 = -0.1 and over

[[record]]
mutant_name = "L23N"
label_class = "bucket 2"

[[record]]
mutant_name = "E51Y"
label_class = "bucket 1"

[[record]]
mutant_name = "L53T"
label_class = "bucket 2"

[[record]]
mutant_name = "A74L"
label_class = "bucket 3"

[[record]]
mutant_name = "A13L"
label_class = "bucket 1"

[[record]]
mutant_name = "L63H"
label_class = "bucket 2"

[[record]]
mutant_name = "K22N"
label_class = "bucket 2"

[[record]]
mutant_name = "L53Q"
label_class = "bucket 3"

[[record]]
mutant_name = "T26G"
label_class = "bucket 2"

[[record]]
mutant_name = "T46N"
label_class = "bucket 2"

[[record]]
mutant_name = "E73P"
label_class = "bucket 2"

[[record]]
mutant_name = "L66I"
label_class = "bucket 3"

[[record]]
mutant_name = "V30R"
label_class = "bucket 1"

[[record]]
mutant_name = "L63K"
label_class = "bucket 1"

[[record]]
mutant_name = "M60N"
label_class = "bucket 1"

[[record]]
mutant_name = "L37V"
label_class = "bucket 3"

[[record]]
mutant_name = "L53K"
label_class = "bucket 3"

[[record]]
mutant_name = "V30S"
label_class = "bucket 1"

[[record]]
mutant_name = "W70C"
label_class = "bucket 1"

[[record]]
mutant_name = "P65L"
label_class = "bucket 2"

[[record]]
mutant_name = "N59I"
label_class = "bucket 3"

[[record]]
mutant_name = "T46Y"
label_class = "bucket 1"

